System: A549/ATCC NSCLC
Test: NCI-60 one-dose screen, 48 h (100 = growth as untreated, 0 = no growth, -100 = all killed)
Conditions: 10 µM unless noted
About 83,000 compounds went through this panel and 20% of them were active in at least one assay; those are over-represented in the sample as a whole.
MEASUREMENT TYPE: growth (%)
Express the result in % but write the number alone.

Here's what some known entries look like.
[[record]]
compound = "O=Cc1ccc([N+](=O)[O-])s1"
measurement_type = "growth"
unit_symbol = "%"
readout_number = 95.2

[[record]]
compound = "COc1ccc(CC(C#N)c2cc3ccccc3[nH]2)cc1 (stereo not given)"
measurement_type = "growth"
unit_symbol = "%"
readout_number = 86.3


Bench note: what growth did C=C1C(=O)O[C@H]2[C@H]1CC/C(COC(=O)NCc1ccc(Cn3c(=O)sn(CCI)c3=O)cc1)=C\CC[C@@]1(C)O[C@@H]21 show?
108

Bench note: what growth did N#Cc1cccc(-c2c(-c3ccc4ccccc4c3)oc3ccccc3c2=O)c1 show?
34.9

====

System: MOLT-4 leukemia
Assay: NCI-60 one-dose screen, 48 h (100 = growth as untreated, 0 = no growth, -100 = all killed)
Conditions: 10 µM unless noted
This is part of a sample that, as a whole, favours compounds with a hit. Of some 83,000 tested, about 20% had one in any assay.
MEASUREMENT TYPE: growth (%)
Express the result in % but write the number alone.

Here's what some known entries look like.
[[record]]
molecule = "CN1C(=O)/C(=C/c2cn(-c3ccccc3)nc2-c2ccccc2)SC1=S"
measured_target = "MOLT-4 leukemia"
unit_symbol = "%"
readout_number = 114

[[record]]
molecule = "Cn1ccnc1C(=O)C(=O)Nc1ccc(CC(=O)Nc2ccccc2)cc1"
measured_target = "MOLT-4 leukemia"
unit_symbol = "%"
readout_number = 107

[[record]]
molecule = "Cc1cc(Cl)ccc1Nc1nc(C(F)(F)F)ccc1C(=O)N/N=C/c1ccc([N+](=O)[O-])cc1"
measured_target = "MOLT-4 leukemia"
unit_symbol = "%"
readout_number = -5.84

[[record]]
molecule = "O=C1CNC(c2ccccc2)C(c2ccccc2)N1 (configuration not stated)"
measured_target = "MOLT-4 leukemia"
unit_symbol = "%"
readout_number = 104


Bench note: what growth did COc1ccc(-c2cc(-c3ccc(Cl)cc3)c(C#N)c(=O)n2CCCCC(=O)Nc2ccccc2N)cc1 show?
47.8

Bench note: what growth did Oc1ccc(CN2CCC(N3CCCCC3)CC2)c2cccnc12 show?
41.2

Bench note: what growth did Cn1ccc2c3c(ccc21)CC3=O show?
88.9

Bench note: what growth did O=[N+]([O-])c1ccc(S(=O)(=O)N2CCN(C3=NS(=O)(=O)c4ccccc4N3c3ccccc3)CC2)cc1 show?
94.9

Bench note: what growth did OCc1cccc(-c2ccc3ncc(-c4nc(NC5CC5)ncc4F)n3c2)c1 show?
-27.8

====

Tested on: MCF7 breast
Assay: NCI-60 one-dose screen, 48 h
Conditions: 10 µM unless noted
About 83,000 compounds went through this panel and 20% of them were active in at least one assay; those are over-represented in the sample as a whole. The source made the active and inactive calls. The calls were made as follows: active = growth percent below 10; inactive = the rest.
Returns: one label drawn from active, inactive

Use these answered entries as a reference point.
[[record]]
compound = "COc1ccc(CC(C#N)c2cc3ccccc3[nH]2)cc1 (stereo unspecified)"
qualitative_label = "inactive"

[[record]]
compound = "OCCNCCCOc1ccc2ncnc(Nc3ccc(Oc4cccc(C(F)(F)F)c4)c(Cl)c3)c2c1"
qualitative_label = "active"


What was the test verdict on C[C@]12C=CC(=O)C=C1CCC1C2[C@@H](O)C[C@@]2(C)C1CC[C@]2(O)C(=O)COC(=O)CCC(=O)O (stereo partly specified) ?
inactive

What was the test verdict on Cn1ccnc1C(=O)C(=O)Nc1ccc(CC(=O)Nc2ccccc2)cc1 ?
inactive

What was the test verdict on N#CC1CCc2c(c(-c3cn[nH]c3C(F)(F)F)nc3c(F)cc4[nH]ncc4c23)C1 (stereo unspecified) ?
inactive

Where do these numbers come from? They come from PubChem BioAssay (NCI).
